Every entry's value here was drawn from ChEMBL document CHEMBL5154644.

- assay.remarks: Hepatic clearance in Sprague-Dawley rat by LC-MS/MS analysis
- Type: ADME
- details: in vivo
measurement.kind: CLH (mL/min/kg)

Here's what some known entries look like.
{"columns": ["structure.string", "CLH, mL/min/kg"],
 "data": [
  ["Cc1cc(-c2ccn3nc(N)c(C(=O)NC4COC4)c3n2)cc2c1C(=O)N([C@@H](C)C1CC1)C2", 33],
  ["CNS(=O)(=O)c1cc(-c2ccn3nc(N)c(C(=O)NC4CC4)c3n2)cc2c1C(=O)N([C@@H](C)C1CC1)C2", 35]
]}

(P) C[C@@H](C1CC1)N1Cc2cc(-c3ccn4nc(N)c(C(=O)NC5CC5)c4n3)cc(OC(F)(F)F)c2C1=O
(Q) Cc1cc(-c2ccn3nc(N)c(-c4cnn(C)c4)c3n2)cc2c1C(=O)N([C@@H](C)C1CC1)C2
(R) C[C@@H](C1CC1)N1Cc2cc(-c3ccn4nc(N)c(C(=O)N[C@@H](CO)C5CC5)c4n3)cc(OC(F)F)c2C1=O
Hey, quick one: sort these by CLH, largest value first please. Provide the ranking by listing each label in its place in the requested order.
Q, R, P
(Q: 21.7 mL/min/kg, R: 15 mL/min/kg, P: 8.3 mL/min/kg)

(P) C[C@@H](C1CC1)N1Cc2cc(-c3ccn4nc(N)c(C(=O)N[C@H]5CC[C@](C)(O)CC5)c4n3)cc(NS(C)(=O)=O)c2C1=O
(Q) Cc1cc(-c2ccn3nc(N)c(C(=O)N[C@@H](CO)C4CC4)c3n2)cc2c1C(=O)N([C@@H](C)C1CC1)C2
Please state the entry with greater CLH among P and Q . Lab log: write the label of the selected item as the result.
P
